Test: CCTE_Simmons_MITO_viability: CellTiter-Glo Viability Assessment for CCTE's HepG2 Seahorse XF Respirometric Screening Assay [post-hoc], Simmons Lab (AID 2284007)
Procedure: CCTE_Simmons_MITO is cell-based, respirometric assay using HepG2 cells and a Seahorse XF Analyzer to measure oxygen consumption rates over four temporal phases spanning a total of 72 minutes: pre-injection (pre-treatment), basal (following test compound injection), maximal (following FCCP uncoupler injection), and inhibited (following rotenone/antimycin A injection)CCTE_Simmons_MITO_viability is one of 4 assay components measured from the CCTE_Simmons_MITO assay. […]
Results filed as inconclusive are left out. Active and inactive are the calls of the source. The calls were made as follows: active = hit-call score of the fitted dose curve at least 0.9, where 1 is the maximum; inconclusive = response in the unintended direction; inactive = score below 0.9.
Lab note: assign the record to one of 1 = active, 0 = inactive

Use these answered entries as a reference point.
molecule	class assignment
CCCCCCCCCCCCN1CCCC1=O	0
NC(=O)N(O)[C@@H]1C=C[C@H](Oc2cccc(Oc3ccc(F)cc3)c2)C1	0
NC(=O)N1C(=O)C(C(=O)c2cc(Cl)cs2)c2cc(F)c(Cl)cc21 (centres undefined)	1
CCCOC(=O)c1ccc(O)cc1	0
Oc1cc2ccccc2c2ccccc12	1
CCc1nn(C2CCCCC2)c2cc(C3(C#N)CCC(C(=O)O)CC3)ccc12 (centres undefined)	0
Cc1cc(CCN2CCN(c3nsc4ccccc34)CC2)cc2c1NC(=O)CC2(C)C	1
CC[C@H](c1ccc(O)cc1)[C@@H](CC)c1ccc(O)cc1	1

# input for lookup
*Q* What is the recorded call for this molecule in the test? OC1CCC(C2CCCCC2)CC1 (centres undefined)
*A* 0

* * *

read-out: CYP3A5 (gene 1577); assay: LTEA_HepaRG_CYP3A5: Life Technologies and Expression Analysis (LTEA) Assay for CYP3A5 using HepaRG (AID 2283493); conditions: mRNA level, 48 h; actives raise or lower the signal
The source made the active and inactive calls. The calls were made as follows: active = hit-call score of the fitted dose curve at least 0.9, where 1 is the maximum; inactive = score below 0.9.
Lab note: assign the record to one of active, inactive

c1ccc2cc3c(ccc4ccccc43)cc2c1 active

*Q* What is the recorded call for this molecule in the test? CCCCCCCCCCCCc1ccccc1S(=O)(=O)O
*A* inactive

*Q* What is the recorded call for this molecule in the test? CC(C)CCCCCCOC(=O)CCCCC(=O)OCCCCCCC(C)C
*A* inactive

*Q* What is the recorded call for this molecule in the test? CC(C)(C)c1ccc(O)c(C(C)(C)C)c1
*A* inactive

*Q* What is the recorded call for this molecule in the test? c1ccc2c(c1)Cc1ccccc1-2
*A* inactive

*Q* What is the recorded call for this molecule in the test? CCCCCCCCC(=O)O
*A* inactive

*Q* What is the recorded call for this molecule in the test? NC(=O)N(O)[C@@H]1C=C[C@H](Oc2cccc(Oc3ccc(F)cc3)c2)C1
*A* inactive

*Q* What is the recorded call for this molecule in the test? Cc1oc(-c2ccccc2)nc1CCOc1ccc(C[C@H](Nc2ccccc2C(=O)c2ccccc2)C(=O)O)cc1
*A* active

*Q* What is the recorded call for this molecule in the test? O=C(O)Cc1cc(I)c(Oc2cc(I)c(O)c(I)c2)c(I)c1
*A* active

*Q* What is the recorded call for this molecule in the test? Cc1cc(C)c(O)c(C)c1
*A* inactive

*Q* What is the recorded call for this molecule in the test? CC1=C(/C=C/C(C)=C/C=C/C(C)=C/C(=O)O)C(C)(C)CCC1
*A* inactive

*Q* What is the recorded call for this molecule in the test? CC[C@H](C)[C@@H](C(=O)O)n1sc2ccccc2c1=O
*A* inactive

*Q* What is the recorded call for this molecule in the test? OCCC(F)(F)C(F)(F)C(F)(F)C(F)(F)C(F)(F)C(F)(F)F
*A* inactive

*Q* What is the recorded call for this molecule in the test? CC#C[C@]1(O)CC[C@H]2[C@@H]3CCC4=CC(=O)CCC4=C3[C@@H](c3ccc(N(C)C)cc3)C[C@@]21C
*A* inactive

*Q* What is the recorded call for this molecule in the test? Oc1cccc(O)c1
*A* inactive

* * *

Experiment: CCTE_Shafer_MEA_dev_burst_duration_mean: CCTE's Neural Network Formation Assay for Mean Burst Duration, Shafer Lab (AID 2284045)
Method: CCTE_Shafer_MEA_dev assay is conducted using Axion Biosystems 48 well microelectrode array (MEA) plates and Maestro recording system. Each well of the MEA plate contains a grid of 16 microelectrodes embedded in the culture surface. Electrically active cells, such as neurons, can be cultured over the electrodes, and electrical activity in these cells can be recorded extracellularly. […]
Calls of active or inactive are those of the source. The calls were made as follows: active = hit-call score of the fitted dose curve at least 0.9, where 1 is the maximum; inactive = score below 0.9.
readout name: outcome

compound	outcome
c1ccc2c(c1)ccc1ccccc12	inactive
CC(O)CO (configuration not stated)	inactive
c1ccc2c(c1)Cc1ccccc1-2	inactive
OCCC(F)(F)C(F)(F)C(F)(F)C(F)(F)C(F)(F)C(F)(F)C(F)(F)C(F)(F)F	inactive
c1ccc2cc3c(ccc4ccccc43)cc2c1	inactive

*Q* Look at this compound and give its reported outcome. CC1=C(/C=C/C(C)=C/C=C/C(C)=C/C(=O)O)C(C)(C)CCC1
*A* inactive

*Q* Look at this compound and give its reported outcome. CN1CCC[C@H]1c1cccnc1
*A* inactive

* * *

assay: BSK_SAg_PBMCCytotoxicity: PBMC Cytotoxicity Assessment in the BioMAP Diversity Plus: SAg Assay (AID 2283093); conditions: primary human HUVEC with PBMC;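 also: PBMC viability measured as Alamar Blue reduction fluorescence at 546/580 nm; fitted both ways against DMSO so a hit may be loss or gain of signal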
Activity calls are given as the source filed them. Rule for the calls: active = hit-call score of the fitted dose curve at least 0.9, where 1 is the maximum; inactive = score below 0.9.
Lab note: assign the record to one of 1 = active, 0 = inactive

compound	class assignment
CCc1nn(C2CCCCC2)c2cc(C3(C#N)CCC(C(=O)O)CC3)ccc12 (stereo not given)	0

*Q* What is the recorded call for this compound in the test? CC1=C(/C=C/C(C)=C/C=C/C(C)=C/C(=O)O)C(C)(C)CCC1
*A* 0

*Q* What is the recorded call for this compound in the test? CCCCC(CC)COC(=O)CCCCC(=O)OCc1ccccc1 (stereo not given)
*A* 0

*Q* What is the recorded call for this compound in the test? O=C(OCCOCCOC(=O)c1ccccc1)c1ccccc1
*A* 0

*Q* What is the recorded call for this compound in the test? CCCCCCCCOC(=O)CCCCCCCCC(=O)OCCCCCCCC
*A* 0

*Q* What is the recorded call for this compound in the test? CC(C)(C)c1ccc(O)c(C(C)(C)C)c1
*A* 1

*Q* What is the recorded call for this compound in the test? CCCCOCCO
*A* 0

*Q* What is the recorded call for this compound in the test? C[C@@H]1C[C@H]2[C@@H]3CCC4=CC(=O)C=C[C@]4(C)[C@@]3(F)[C@@H](O)C[C@]2(C)[C@@]1(O)C(=O)COP(=O)(O)O
*A* 0

* * *

read-out: MYC, MYC (gene 4609); test: LTEA_HepaRG_MYC: Life Technologies and Expression Analysis (LTEA) Assay for MYC using HepaRG (AID 2283518); settings: mRNA level, 48 h; actives raise or lower the signal
Active and inactive are the calls of the source. The calls were made as follows: active = hit-call score of the fitted dose curve at least 0.9, where 1 is the maximum; inactive = score below 0.9.
Lab note: assign the record to one of active, inactive

Use these answered entries as a reference point.
molecule	class assignment
OCCC(F)(F)C(F)(F)C(F)(F)C(F)(F)C(F)(F)C(F)(F)F	inactive
CN1CCN(c2ccccc2/C=C2\SCCN(c3ccc(Cl)c(Cl)c3)C2=O)CC1	inactive

*Q* What is the recorded call for this molecule in the test? CC(O)CO (stereo not drawn)
*A* inactive

*Q* What is the recorded call for this molecule in the test? OCCC(F)(F)C(F)(F)C(F)(F)C(F)(F)C(F)(F)C(F)(F)C(F)(F)C(F)(F)F
*A* inactive

*Q* What is the recorded call for this molecule in the test? Oc1cccc(O)c1
*A* inactive

*Q* What is the recorded call for this molecule in the test? O=[N+]([O-])c1ccc(O)cc1
*A* inactive

*Q* What is the recorded call for this molecule in the test? CCc1ccc(CCOc2ccc(CC3SC(=O)NC3=O)cc2)nc1 (stereo not drawn)
*A* active

*Q* What is the recorded call for this molecule in the test? COCC(C)O (stereo not drawn)
*A* inactive

*Q* What is the recorded call for this molecule in the test? CN(C)C=O
*A* inactive

*Q* What is the recorded call for this molecule in the test? CCC(=C(c1ccc(O)cc1)c1ccc(OCCN(C)C)cc1)c1ccccc1
*A* active

*Q* What is the recorded call for this molecule in the test? CCN(CC)CCNc1ccc(CNC=O)c2sc3ccc(OC)cc3c(=O)c12
*A* inactive

*Q* What is the recorded call for this molecule in the test? CCCCCCCCCCCCc1ccccc1S(=O)(=O)O
*A* active

*Q* What is the recorded call for this molecule in the test? Nc1cccc2c(N)cccc12
*A* inactive

* * *

Some molecules, each annotated with its measured AC50.
Molecular target: human Serotonin, 5-Hydroxytryptamine Receptor 2A (5HT2A), HTR2A (gene 3356) (UniProt P28223)
Sequence (P28223 whole entry, looked up): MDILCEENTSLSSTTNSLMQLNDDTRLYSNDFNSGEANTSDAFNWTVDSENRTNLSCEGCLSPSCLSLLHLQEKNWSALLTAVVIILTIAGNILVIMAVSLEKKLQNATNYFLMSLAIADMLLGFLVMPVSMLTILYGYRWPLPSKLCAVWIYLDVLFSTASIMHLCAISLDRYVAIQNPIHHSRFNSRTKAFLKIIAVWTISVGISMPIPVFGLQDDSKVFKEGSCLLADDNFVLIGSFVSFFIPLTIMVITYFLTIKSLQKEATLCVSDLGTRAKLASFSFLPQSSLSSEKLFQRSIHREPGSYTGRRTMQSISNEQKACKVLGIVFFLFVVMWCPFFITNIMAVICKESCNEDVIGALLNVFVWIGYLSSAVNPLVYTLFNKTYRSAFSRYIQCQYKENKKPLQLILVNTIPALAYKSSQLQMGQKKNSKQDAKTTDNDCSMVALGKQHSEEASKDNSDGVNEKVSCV
Assay: NVS_GPCR_h5HT2A: NovaScreen (NVS) G Protein-Coupled Receptor Assay for human Serotonin, 5-Hydroxytryptamine Receptor 2A (5HT2A) (AID 2283249)
Method: NVS_GPCR_h5HT2A is a biochemical, single-readout assay that uses extracted gene-proteins from Human cortex in a tissue-based cell-free assay. Measurements were taken 1.5 hours after chemical dosing in a 48-well plate.NVS_GPCR_h5HT2A is one of one assay component(s) measured or calculated from the NVS_GPCR_h5HT2A assay. […] This assay endpoint, NVS_GPCR_h5HT2A, was analyzed in the positive analysis fitting direction relative to DMSO as the negative control and baseline of activity. […]
Records with an inconclusive call do not appear. The source made the active and inactive calls. Rule for the calls: active = hit-call score of the fitted dose curve at least 0.9, where 1 is the maximum; inconclusive = response in the unintended direction; inactive = score below 0.9.

CCCOc1sc(C(=O)N2CCC(c3cc(CN)ccc3F)CC2)c(C)c1Br 14300 nM (active)

*Q* Look at this molecule and give its reported AC50. CN1CCN(c2ccccc2/C=C2\SCCN(c3ccc(Cl)c(Cl)c3)C2=O)CC1
*A* 1900 nM (active)

*Q* Look at this molecule and give its reported AC50. CC(=O)NC1(c2cccc(F)c2)CCN(CC[C@@]2(c3ccc(Cl)c(Cl)c3)CN(c3ccccc3)C(=O)CO2)CC1
*A* 1900 nM (active)

These data points were gathered from PubChem BioAssay (EPA / NIEHS).
